Values from patent US6653334B1

assay system: hPPARγ (Homo sapiens)
method summary: PPAR transfection (luciferase reporter) assay in COS cells, hPPARγ
condition notes: agonist activity, transiently transfected COS cells, 16 hours incubation; read-out: hPPAR; EC50 γ
Assignment: determine reported pEC50 for the given compounds.
Answers are plain numbers, as −log10 of the molar value.

# example entries with known answers
compound: CCCN(CCCc1ccc(OC(C)(C)C(=O)O)cc1)c1nc2ccccc2o1 [Example 132]
result type: pEC50
result value: 5.70

compound: CC(C)(Oc1ccc(CN(Cc2cccc3ccccc23)c2nc3ccccc3o2)cc1)C(=O)O [Example 12]
result type: pEC50
result value: 7.00

compound: CC(Oc1cccc(CN(CCCc2ccc(Cl)cc2)c2nc3ccccc3o2)c1)C(=O)O (centres unmarked) [Example 63]
result type: pEC50
result value: 7.00

compound: CC(Oc1cccc(CN(CCCc2ccccc2)c2nc3ccccc3o2)c1)C(=O)O (centres unmarked) [Example 70]
result type: pEC50
result value: 6.40

compound: CCCCCCCCN(Cc1cccc(OC(C)(C)C(=O)O)c1)c1nc2ccccc2o1 [Example 6]
result type: pEC50
result value: 6.70

Parameters: items (list). Returns: pEC50 for each item.
1. CCCCCCCCN(CCCc1ccccc1OC(C)(C)C(=O)O)c1nc2ccccc2o1 [Example 155]
2. CCC(Oc1cccc(CN(CCCc2ccc(Cl)cc2)c2nc3ccccc3o2)c1)C(=O)O (centres unmarked) [Example 56]
3. CCCCCCCN(Cc1cccc(OCC(=O)O)c1)c1nc2ccccc2o1 [Example 46]

Solution:
1. 6.30
2. 7.00
3. 6.40

====

Assignment: determine reported pEC50 for the given compounds.
assay system: hPPARα (Homo sapiens)
Sequence (Q07869 whole entry): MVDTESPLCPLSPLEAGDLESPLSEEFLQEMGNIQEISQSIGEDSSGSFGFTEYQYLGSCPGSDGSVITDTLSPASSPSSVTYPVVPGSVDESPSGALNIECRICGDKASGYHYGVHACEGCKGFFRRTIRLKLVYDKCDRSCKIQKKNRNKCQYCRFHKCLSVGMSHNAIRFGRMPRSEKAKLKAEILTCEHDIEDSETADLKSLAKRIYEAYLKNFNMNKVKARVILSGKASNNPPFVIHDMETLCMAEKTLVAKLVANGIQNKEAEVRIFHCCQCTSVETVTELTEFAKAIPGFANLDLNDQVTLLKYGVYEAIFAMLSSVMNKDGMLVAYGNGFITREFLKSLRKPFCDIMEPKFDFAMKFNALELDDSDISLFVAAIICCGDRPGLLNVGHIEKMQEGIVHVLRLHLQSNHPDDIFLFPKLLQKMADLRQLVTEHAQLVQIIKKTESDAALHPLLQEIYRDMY
method summary: PPAR transfection (luciferase reporter) assay in COS cells, hPPARα
condition notes: agonist activity, transiently transfected COS cells, 16 hours incubation; read-out: hPPAR; EC50 α
Numbers only, as −log10 of the molar value.

compound: CC(C)(Oc1cccc(CN(Cc2cccc3ccccc23)c2nc3ccccc3o2)c1)C(=O)O
result value: 8.00
--
compound: CC(Oc1cccc(CN(CCCc2ccc(Cl)cc2)c2nc3ccccc3o2)c1)C(=O)O (centres unmarked)
result value: 8.70
--
compound: CCC(Oc1cccc(CN(CCCc2ccccc2)c2nc3ccccc3o2)c1)C(=O)O (centres unmarked)
result value: 8.70

Parameters: items (list). Returns: pEC50 for each item.
1. CCCN(Cc1cccc(OC(C)C(=O)O)c1)c1nc2ccccc2o1 (centres unmarked)
2. CCCCCCCCN(Cc1cccc(OC(C)(C)C(=O)O)c1)c1nc2ccccc2o1
3. CCN(CCCc1ccc(OC(C)(C)C(=O)O)cc1)c1nc2ccccc2o1
4. CCC(Oc1cccc(CN(CCCc2ccc(Cl)cc2)c2nc3ccccc3o2)c1)C(=O)O (centres unmarked)
5. CCCN(CCCc1ccc(OC(C)(C)C(=O)O)cc1)c1nc2ccccc2o1
6. CC(C)N(CCCc1ccc(OC(C)(C)C(=O)O)cc1)c1nc2ccccc2o1

Solution:
1. 7.00
2. 8.00
3. 8.00
4. 9.00
5. 7.52
6. 8.00

Parameters: items (list). Returns: pEC50 for each item.
1. CC(C)(Oc1ccc(CN(Cc2cccc3ccccc23)c2nc3ccccc3o2)cc1)C(=O)O
2. CC(C)(Oc1ccc(CN(Cc2ccccc2[N+](=O)[O-])c2nc3ccccc3o2)cc1)C(=O)O
3. CCCCCCCCN(CCCc1ccccc1OC(C)(C)C(=O)O)c1nc2ccccc2o1
4. CC(C)(Oc1cccc(CN(Cc2ccc(Cl)cc2)c2nc3ccccc3o2)c1)C(=O)O

Solution:
1: 8.52; 2: 7.00; 3: 8.00; 4: 8.00

Parameters: items (list). Returns: pEC50 for each item.
1. CN(C)c1ccc(CN(Cc2cccc(OC(C)(C)C(=O)O)c2)c2nc3ccccc3o2)cc1
2. CC#CCN(CCCc1cccc(OC(C)(C)C(=O)O)c1)c1nc2ccccc2o1
3. CCCCCCCCN(Cc1cccc(OC(C)C(=O)O)c1)c1nc2ccccc2o1 (centres unmarked)
4. CCCCCCCCN(Cc1cccc(OC(CC)C(=O)O)c1)c1nc2ccccc2o1 (centres unmarked)

Solution:
1: 8.00; 2: 8.40; 3: 9.52; 4: 8.52

====

assay system: hPPARα (Homo sapiens)
method summary: PPAR transfection (luciferase reporter) assay in COS cells, hPPARα
condition notes: agonist activity, transiently transfected COS cells, 16 hours incubation; read-out: hPPAR; EC50 α
result type: EC50 (nM)
Give bare numbers, in nM.

compound: CCCCCCCCN(Cc1cccc(OCC(=O)O)c1)c1nc2ccccc2o1
EC50 / nM: 10

Parameters: items (list). Returns: EC50 for each item.
1. CC(Oc1cccc(CN(CCCc2ccccc2)c2nc3ccccc3o2)c1)C(=O)O (stereo not drawn)
2. CCCCCCCN(Cc1cccc(OCC(=O)O)c1)c1nc2ccccc2o1

Solution:
1. 1
2. 10

====

assay system: hPPARδ (Homo sapiens)
Sequence (Q03181 1-441): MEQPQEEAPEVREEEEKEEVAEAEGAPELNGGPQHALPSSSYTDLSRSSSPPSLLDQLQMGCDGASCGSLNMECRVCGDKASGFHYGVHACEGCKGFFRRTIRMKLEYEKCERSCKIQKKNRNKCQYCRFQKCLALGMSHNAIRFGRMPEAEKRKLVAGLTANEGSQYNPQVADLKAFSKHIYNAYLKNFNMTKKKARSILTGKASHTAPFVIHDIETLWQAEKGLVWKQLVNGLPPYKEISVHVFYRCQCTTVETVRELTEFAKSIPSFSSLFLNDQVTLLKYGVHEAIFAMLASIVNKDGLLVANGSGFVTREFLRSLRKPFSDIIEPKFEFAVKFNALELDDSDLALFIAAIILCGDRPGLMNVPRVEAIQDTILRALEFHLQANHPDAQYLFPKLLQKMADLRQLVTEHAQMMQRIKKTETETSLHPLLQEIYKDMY
method summary: PPAR transfection (luciferase reporter) assay in COS cells, hPPARδ
condition notes: agonist activity, transiently transfected COS cells, 16 hours incubation; read-out: hPPAR; EC50 δ
Assignment: determine reported pEC50 for the given compounds.
One number for each entry, as −log10 of the molar value.

structure string: CC(C)(Oc1ccc(CN(Cc2cccc3ccccc23)c2nc3ccccc3o2)cc1)C(=O)O
pEC50: 6.30

structure string: CCCCCCCN(Cc1cccc(OCC(=O)O)c1)c1nc2ccccc2o1
pEC50: 5.96

structure string: CCCCCCCCN(Cc1cccc(OCC(=O)O)c1)c1nc2ccccc2o1
pEC50: 5.35

Exercise: // returns reported pEC50 for input CCCCCCCCN(CCCc1ccccc1OC(C)(C)C(=O)O)c1nc2ccccc2o1
Solution: 6.52

====

assay system: hPPARδ (Homo sapiens)
method summary: PPAR transfection (luciferase reporter) assay in COS cells, hPPARδ
condition notes: agonist activity, transiently transfected COS cells, 16 hours incubation; read-out: hPPAR; EC50 δ
Assignment: determine reported EC50 for the given molecules.
Answers are plain numbers, in nM.

molecule: CCC(Oc1cccc(CN(CCCc2ccc(Cl)cc2)c2nc3ccccc3o2)c1)C(=O)O (centres unmarked) [Example 56]
readout units: nM
EC50: 1000
//
molecule: CC(C)N(CCCc1ccc(OC(C)(C)C(=O)O)cc1)c1nc2ccccc2o1 [Example 133]
readout units: nM
EC50: 3000
//
molecule: CN(C)c1ccc(CN(Cc2cccc(OC(C)(C)C(=O)O)c2)c2nc3ccccc3o2)cc1 [Example 41]
readout units: nM
EC50: 1800

Parameters: items (list). Returns: EC50 for each item.
1. CC(Oc1cccc(CN(CCCc2ccc(Cl)cc2)c2nc3ccccc3o2)c1)C(=O)O (centres unmarked) [Example 63]
2. CCC(Oc1cccc(CN(CCCc2ccccc2)c2nc3ccccc3o2)c1)C(=O)O (centres unmarked) [Example 55]

Solution:
[900, 600]

====

Assignment: determine reported pEC50 for the given molecules.
assay system: hPPARγ (Homo sapiens, UniProt P37231)
Sequence (P37231 whole entry): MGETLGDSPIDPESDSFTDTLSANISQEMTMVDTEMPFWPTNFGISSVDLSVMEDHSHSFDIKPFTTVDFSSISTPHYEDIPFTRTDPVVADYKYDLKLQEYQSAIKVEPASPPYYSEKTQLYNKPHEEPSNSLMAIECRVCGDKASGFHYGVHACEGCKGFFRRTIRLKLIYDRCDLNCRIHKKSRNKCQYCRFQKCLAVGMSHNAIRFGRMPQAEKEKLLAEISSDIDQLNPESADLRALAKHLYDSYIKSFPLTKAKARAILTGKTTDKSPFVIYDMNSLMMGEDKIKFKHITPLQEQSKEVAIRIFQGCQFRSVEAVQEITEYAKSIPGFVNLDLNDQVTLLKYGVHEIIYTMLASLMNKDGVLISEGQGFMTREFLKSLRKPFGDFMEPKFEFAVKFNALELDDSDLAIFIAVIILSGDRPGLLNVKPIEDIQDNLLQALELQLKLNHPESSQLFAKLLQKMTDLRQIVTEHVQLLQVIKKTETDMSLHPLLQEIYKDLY
method summary: PPAR transfection (luciferase reporter) assay in COS cells, hPPARγ
condition notes: agonist activity, transiently transfected COS cells, 16 hours incubation; read-out: hPPAR; EC50 γ
Answers are plain numbers, as −log10 of the molar value.

molecule: CC(C)(Oc1cccc(CN(Cc2ccc(Cl)cc2)c2nc3ccccc3o2)c1)C(=O)O [compound 1]
pEC50: 6.70
--
molecule: CCCCCCCCN(Cc1cccc(OCC(=O)O)c1)c1nc2ccccc2o1 [Example 48]
pEC50: 6.15
--
molecule: CC#CCN(CCCc1cccc(OC(C)(C)C(=O)O)c1)c1nc2ccccc2o1 [Example 121]
pEC50: 7.00
--
molecule: CC(C)N(CCCc1ccc(OC(C)(C)C(=O)O)cc1)c1nc2ccccc2o1 [Example 133]
pEC50: 6.52
--
molecule: CCCCCCCCN(Cc1cccc(OC(CC)C(=O)O)c1)c1nc2ccccc2o1 (stereo not drawn) [Example 59]
pEC50: 7.00
--
molecule: CCC(Oc1cccc(CN(CCCc2ccccc2)c2nc3ccccc3o2)c1)C(=O)O (stereo not drawn) [Example 55]
pEC50: 7.00

Parameters: items (list). Returns: pEC50 for each item.
1. CCCCCCCCN(Cc1cccc(OC(C)C(=O)O)c1)c1nc2ccccc2o1 (stereo not drawn) [Example 69]
2. CN(C)c1ccc(CN(Cc2cccc(OC(C)(C)C(=O)O)c2)c2nc3ccccc3o2)cc1 [Example 41]
3. CCN(CCCc1ccc(OC(C)(C)C(=O)O)cc1)c1nc2ccccc2o1 [Example 114]

Solution:
6.70
6.70
6.40
